Ref: patent US9278996B2

# System: non-small cell lung cancer (NCI-H460)
# protocol description: Anticancer activity assay (WST-8 cell growth), NCI-H460
# Type: cell-based
# measurement conditions: NCI-H460 cells, 4 day incubation, WST-8; read-out: IC50 (nM) NCI-H460
measured attribute: IC50 (nM)
Dear colleague, please return just the value in nM, with no unit written.

Prompt: So what's the measured IC50 for this one? COc1cccc2c1C(=O)c1c(O)c3c(c(O)c1C2=O)C[C@@](O)(C(=O)CO)C[C@@H]3O[C@H]1C[C@H](N)[C@H](O)[C@H](C)O1 [Doxorubcin, reference compound]
Response: 150
